target: UniProt:P0DTD1; format: biochemical; settings: Table 1 compounds
metric: 3CL^pro inhibition max resp (%)
Numbers only, in %.

O=C(O)c1ccc(N2C(=O)/C(=C\c3ccc(-c4ccc([N+](=O)[O-])cc4)o3)C=C2c2ccccc2)cc1 : 76.33

// below: 3CL^pro inhibition max resp requested for another compound
Name the reported 3CL^pro inhibition max resp value associated with the compound C/C1=C2/[N-][C@H]([C@H](CC(N)=O)[C@@]2(C)CCC(=O)NC[C@@H](C)OP(=O)([O-])O[C@H]2[C@@H](O)[C@@H](n3cnc4cc(C)c(C)cc43)O[C@@H]2CO)[C@]2(C)N=C(/C(C)=C3N=C(/C=C4N=C1[C@@H](CCC(N)=O)C\4(C)C)[C@@H](CCC(N)=O)[C@]\3(C)CC(N)=O)[C@@H](CCC(N)=O)[C@]2(C)CC(N)=O.[Co+3].[OH-] [hydroxocobalamin]
89.56

====

test system: Vero E6 cells; details: read-out: Vero E6 cytotoxicity CC50; no virus; Table 1 compounds
Non-standard residues stand in square brackets, D forms with d. Residues, ends and D or L forms follow the SMILES beside them. *: point of attachment. Nva = CCC[C@H](N)C(=O)O; Cbz = O=C(OCc1ccccc1)*
Field: CC50. Provide a value for each of the compounds that follow.

O=C1C(Cl)=C(NCCN2CCOCC2)C(=O)c2ncccc21 [DA-3003–1] : 7.74 µM
Brc1c(Br)c(Br)c2n[nH]nc2c1Br [TBB] : 8.91 µM
Cc1cc(SCc2sc(-c3ccc(C(F)(F)F)c(F)c3)nc2C)ccc1OCC(=O)O [GW-0742] : > 20 µM
Cc1[nH]c(/C=C2\C(=O)Nc3cc(-c4ccccc4)ccc32)c(C)c1CCC(=O)O [SU 16f] : 7.94 µM
CN[C@H](CC(C)C)C(=O)N[C@H]1C(=O)N[C@@H](CC(N)=O)C(=O)N[C@H]2C(=O)N[C@H]3C(=O)N[C@H](C(=O)N[C@H](C(=O)O)c4cc(O)cc(O)c4-c4cc3ccc4O)[C@H](O[C@H]3C[C@](C)(N)[C@@H](O)[C@H](C)O3)c3ccc(c(Cl)c3)Oc3cc2cc(c3O[C@@H]2O[C@H](CO)[C@@H](O)[C@H](O)[C@H]2O[C@H]2C[C@](C)(NCc3ccc(-c4ccc(Cl)cc4)cc3)[C@@H](O)[C@H](C)O2)Oc2ccc(cc2Cl)[C@H]1O.O=P(O)(O)O.O=P(O)(O)O [oritavancin (diphosphate)] : 14.1 µM

Items follow; give CC50 for each.
1. CCCCCCCCCCCCCCCCC(C(=O)O)C(O)(CC(=O)O)C(=O)O (stereo not shown) [agaric acid]
2. O=C(Nc1cc(C(F)(F)F)cc(C(F)(F)F)c1)c1cnc(Cl)nc1C(F)(F)F [SP 100030]

1: > 20 µM; 2: > 20 µM

Items follow; give CC50 for each.
1. O=C(O)c1ccc(N2C(=O)/C(=C\c3ccc(-c4ccc([N+](=O)[O-])cc4)o3)C=C2c2ccccc2)cc1 [4E1RCat]
2. CCC[C@@H](C=O)NC(=O)[C@H](CC(C)C)NC(=O)[C@H](CC(C)C)NC(=O)OCc1ccccc1 [MG-115] (Cbz-Leu-Leu-[Nva]-aldehyde)
3. O.O=C(OC[C@H]1O[C@@H](OC(=O)c2cc(O)c(O)c(O)c2)[C@H](OC(=O)c2cc(O)c(O)c(O)c2)[C@@H](OC(=O)c2cc(O)c(O)c(O)c2)[C@@H]1OC(=O)c1cc(O)c(O)c(O)c1)c1cc(O)c(O)c(O)c1 [penta-O-galloyl-β-D-glucose hydrate]
4. CC1(C)OC2=C(C(=O)c3ccccc3C2=O)[C@H](NCc2ccccc2)[C@@H]1O [CAY-10581]
5. O=C1C(SCCO)=C(SCCO)C(=O)c2ccccc21 [NSC 95397]
6. C/C1=C2/[N-][C@H]([C@H](CC(N)=O)[C@@]2(C)CCC(=O)NC[C@@H](C)OP(=O)([O-])O[C@H]2[C@@H](O)[C@@H](n3cnc4cc(C)c(C)cc43)O[C@@H]2CO)[C@]2(C)N=C(/C(C)=C3N=C(/C=C4N=C1[C@@H](CCC(N)=O)C\4(C)C)[C@@H](CCC(N)=O)[C@]\3(C)CC(N)=O)[C@@H](CCC(N)=O)[C@]2(C)CC(N)=O.[Co+3].[OH-] [hydroxocobalamin]

1: > 20 µM; 2: 1.13 µM; 3: 11.2 µM; 4: > 20 µM; 5: 14.1 µM; 6: > 20 µM

====

molecular target: SARS-CoV-2 3CL^pro (Severe acute respiratory syndrome coronavirus 2, UniProt P0DTD1); format: biochemical; details: Table 1 compounds
metric: 3CL^pro inhibition max resp (%)
Numbers only, in %.

Answered cases to consult:
Cc1cc(SCc2sc(-c3ccc(C(F)(F)F)c(F)c3)nc2C)ccc1OCC(=O)O : 126.23
O.O=C(OC[C@H]1O[C@@H](OC(=O)c2cc(O)c(O)c(O)c2)[C@H](OC(=O)c2cc(O)c(O)c(O)c2)[C@@H](OC(=O)c2cc(O)c(O)c(O)c2)[C@@H]1OC(=O)c1cc(O)c(O)c(O)c1)c1cc(O)c(O)c(O)c1 [penta-O-galloyl-β-D-glucose hydrate] : 109.94
Brc1c(Br)c(Br)c2n[nH]nc2c1Br : 77.96
CC1(C)CCC2=C(O1)c1ccccc1C(=O)C2=O : 60.88

Items follow; give 3CL^pro inhibition max resp for each.
1. COCCn1c2c([n+](Cc3cnccn3)c1C)C(=O)c1ccccc1C2=O [sepantronium bromide]
2. O=C1C(SCCO)=C(SCCO)C(=O)c2ccccc21
3. Cc1ccc(C(=O)Nc2ccc(S(=O)(=O)O)c3cc(S(=O)(=O)O)cc(S(=O)(=O)O)c23)cc1NC(=O)c1cccc(NC(=O)Nc2cccc(C(=O)Nc3cc(C(=O)Nc4ccc(S(=O)(=O)O)c5cc(S(=O)(=O)O)cc(S(=O)(=O)O)c45)ccc3C)c2)c1 [suramin sodium]

1. 61.79
2. 98.7
3. 99.49

====

molecular target: SARS-CoV-2 3CL^pro (Severe acute respiratory syndrome coronavirus 2, UniProt P0DTD1); assay type: biochemical; conditions: Table 1 compounds
Non-standard residues stand in square brackets, D forms with d. Residues, ends and D or L forms follow the SMILES beside them. *: point of attachment. Nva = CCC[C@H](N)C(=O)O; Cbz = O=C(OCc1ccccc1)*
Field: 3CL^pro inhibition max resp. Provide a value for each of the molecules that follow.
One number for each entry, in %.

Answered cases to consult:
O=C1c2ccccc2-[n+]2ccc3c([nH]c4ccccc43)c21 [fascaplysin] : 63.44
CCC[C@@H](C=O)NC(=O)[C@H](CC(C)C)NC(=O)[C@H](CC(C)C)NC(=O)OCc1ccccc1 [MG-115] (Cbz-Leu-Leu-[Nva]-aldehyde) : 74.89
CCCCCCCCCCCCCCCCC(C(=O)O)C(O)(CC(=O)O)C(=O)O (centres unmarked) [agaric acid] : 110.16
CN[C@H](CC(C)C)C(=O)N[C@H]1C(=O)N[C@@H](CC(N)=O)C(=O)N[C@H]2C(=O)N[C@H]3C(=O)N[C@H](C(=O)N[C@H](C(=O)O)c4cc(O)cc(O)c4-c4cc3ccc4O)[C@H](O[C@H]3C[C@](C)(N)[C@@H](O)[C@H](C)O3)c3ccc(c(Cl)c3)Oc3cc2cc(c3O[C@@H]2O[C@H](CO)[C@@H](O)[C@H](O)[C@H]2O[C@H]2C[C@](C)(NCc3ccc(-c4ccc(Cl)cc4)cc3)[C@@H](O)[C@H](C)O2)Oc2ccc(cc2Cl)[C@H]1O.O=P(O)(O)O.O=P(O)(O)O [oritavancin (diphosphate)] : 93.29

// below: 3CL^pro inhibition max resp requested for another molecule
Name the reported 3CL^pro inhibition max resp value associated with the molecule COc1ccc2cc(-c3cc(-c4cc(Cl)cc(Cl)c4)nn3[C@@H](C)c3ccc(C(=O)NCCC(=O)O)cc3)ccc2c1 [MK 0893]
95.77

====

system: Vero E6 cells; settings: no virus; Table 1 compounds
Field: Vero E6 cytotoxicity efficacy. Provide a value for each of the molecules that follow.
One number for each entry, in %.

O.O=C(OC[C@H]1O[C@@H](OC(=O)c2cc(O)c(O)c(O)c2)[C@H](OC(=O)c2cc(O)c(O)c(O)c2)[C@@H](OC(=O)c2cc(O)c(O)c(O)c2)[C@@H]1OC(=O)c1cc(O)c(O)c(O)c1)c1cc(O)c(O)c(O)c1 [penta-O-galloyl-β-D-glucose hydrate] : 80.28
O=C1C(Cl)=C(NCCN2CCOCC2)C(=O)c2ncccc21 : 112
O=C1c2ccccc2-[n+]2ccc3c([nH]c4ccccc43)c21 : 99.28
Cc1ccc(C(=O)Nc2ccc(S(=O)(=O)O)c3cc(S(=O)(=O)O)cc(S(=O)(=O)O)c23)cc1NC(=O)c1cccc(NC(=O)Nc2cccc(C(=O)Nc3cc(C(=O)Nc4ccc(S(=O)(=O)O)c5cc(S(=O)(=O)O)cc(S(=O)(=O)O)c45)ccc3C)c2)c1 [suramin sodium] : 0
COCCn1c2c([n+](Cc3cnccn3)c1C)C(=O)c1ccccc1C2=O [sepantronium bromide] : 20.12

// below: Vero E6 cytotoxicity efficacy requested for another molecule
Name the reported Vero E6 cytotoxicity efficacy value associated with the molecule CCCCCCCCCCCCCCCCC(C(=O)O)C(O)(CC(=O)O)C(=O)O (stereo not drawn)
0
